# assay.procedure: APR_HepG2_NuclearSize_72hr: Apredica 72-hour HepG2 Assay for Nuclear Size (AID 2282925)
# details: high-content imaging, actives raise or lower the signal
The source made the active and inactive calls. The calls were made as follows: active = hit-call score of the fitted dose curve at least 0.9, where 1 is the maximum; inactive = score below 0.9.
Field 'call' accepts yes for active, no for inactive

{"smi": "C[C@@H](Oc1ccc(CNC(=O)c2cccnc2Oc2ccc3c(c2)OCO3)c(F)c1)C(=O)O", "assigned.category": "no"}
{"smi": "NC(N)=O", "assigned.category": "no"}
{"smi": "CCOc1ccc2[nH]cc(C(=O)NCc3ccccc3)c(=O)c2n1", "assigned.category": "no"}
{"smi": "NC(=O)NN=Cc1ccc([N+](=O)[O-])o1", "assigned.category": "no"}
{"smi": "Cc1nccn1-c1ccc(Sc2cccc(C3(C(N)=O)CCOCC3)c2)cc1", "assigned.category": "no"}

Could you kindly confirm the outcome this assay logged for `CCCc1ccccc1` ? no

Could you kindly confirm the outcome this assay logged for `Nc1ccn([C@@H]2O[C@H](CO)[C@@H](O)[C@@H]2O)c(=O)n1` ? yes

----------
# Read-out: JUN Transcription Factor, JUN (gene 3725)
# assay.procedure: LTEA_HepaRG_JUN: Life Technologies and Expression Analysis (LTEA) Assay for JUN Transcription Factor using HepaRG (AID 2283513)
# details: mRNA level, 48 h; actives raise or lower the signal
Active and inactive are the calls of the source. Rule for the calls: active = hit-call score of the fitted dose curve at least 0.9, where 1 is the maximum; inactive = score below 0.9.
Field 'call' accepts active, inactive

Past entries and their recorded results:
{"compound": "CC(C)CC(C)O (stereo unspecified)", "assigned.category": "inactive"}
{"compound": "NC(N)=O", "assigned.category": "inactive"}
{"compound": "O=S(=O)(O)c1ccc(N=Nc2c(O)ccc3cc(S(=O)(=O)O)ccc23)cc1", "assigned.category": "inactive"}
{"compound": "CCCCN1C(=O)[C@@H]([C@H](O)C2CCCCC2)NC(=O)C12CCN(Cc1ccc(Oc3ccc(C(=O)O)cc3)cc1)CC2", "assigned.category": "inactive"}
{"compound": "C=CN1CCCC1=O", "assigned.category": "inactive"}
{"compound": "Cn1c(=O)c2[nH]cnc2n(C)c1=O", "assigned.category": "inactive"}
{"compound": "COCc1nnc(-c2ccc[n+]([O-])c2)n1-c1c(Cl)c(Cl)cc2[nH]c(=O)c(=O)[nH]c12", "assigned.category": "inactive"}
{"compound": "NC(=O)NN=Cc1ccc([N+](=O)[O-])o1", "assigned.category": "active"}
{"compound": "Cc1nc(-c2ccccn2)ncc1C(=O)Nn1cc(C)c2cc(F)ccc21", "assigned.category": "inactive"}
{"compound": "CCCc1ccccc1", "assigned.category": "inactive"}

Could you kindly confirm the outcome this assay logged for `c1ccc2ncccc2c1` ? inactive

Could you kindly confirm the outcome this assay logged for `Cn1cc[nH]c1=S` ? inactive

Could you kindly confirm the outcome this assay logged for `NC(=O)N(O)[C@@H]1COc2cc(OCc3ccccc3)ccc21` ? inactive

Could you kindly confirm the outcome this assay logged for `CCc1ccc(O)c(C(C)(C)C)c1` ? inactive

Could you kindly confirm the outcome this assay logged for `O=C(NO)C1(NS(=O)(=O)c2ccc(Oc3ccc(F)cc3)cc2)CCOCC1` ? inactive

----------
# Read-out: Fatty Acid-Binding Protein 1 (FABP1), FABP1 (gene 2168)
# assay.procedure: LTEA_HepaRG_FABP1: Life Technologies and Expression Analysis (LTEA) Assay for Fatty Acid-Binding Protein 1 (FABP1) using HepaRG (AID 2283494)
# details: mRNA level, 48 h; actives raise or lower the signal
Activity calls are given as the source filed them. Rule for the calls: active = hit-call score of the fitted dose curve at least 0.9, where 1 is the maximum; inactive = score below 0.9.
Field 'call' accepts active, inactive

Past entries and their recorded results:
{"smi": "OC(CCl)CCl", "assigned.category": "inactive"}
{"smi": "COc1cc2c(c(OC)c1OC)-c1ccc(OC)c(=O)cc1[C@@H](NC(C)=O)CC2", "assigned.category": "active"}
{"smi": "c1ccc2cc3ccccc3cc2c1", "assigned.category": "inactive"}
{"smi": "NC(=O)NN=Cc1ccc([N+](=O)[O-])o1", "assigned.category": "active"}

Switching to the query record.
Could you kindly confirm the outcome this assay logged for `NNC(=O)c1ccncc1` ? inactive

Provenance of the data: PubChem BioAssay (EPA / NIEHS)
